glycan array binding signal (z-score) for assorted binders
Biological target: GalNAc(b1-4)GlcNAc6S
Test: glycan array binding signal (z-score within array); higher = stronger binding
Conditions: glycan notation: IUPAC condensed, linker removed
The entries come from a sample that favours the strongest signals as a whole.
reportedProperty: glycan array binding signal (z-score)

{"binder": "Si Bti9 1b-HA (Solanum lycopersicum) (protein) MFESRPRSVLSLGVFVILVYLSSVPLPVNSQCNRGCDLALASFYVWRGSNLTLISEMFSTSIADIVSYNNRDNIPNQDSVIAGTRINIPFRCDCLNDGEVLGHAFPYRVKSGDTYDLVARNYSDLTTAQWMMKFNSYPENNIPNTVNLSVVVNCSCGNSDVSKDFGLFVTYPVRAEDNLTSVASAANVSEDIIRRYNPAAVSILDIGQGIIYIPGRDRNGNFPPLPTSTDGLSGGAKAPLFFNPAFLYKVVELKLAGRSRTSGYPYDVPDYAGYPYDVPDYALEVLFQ", "reportedValue": -0.204}
{"binder": "MGL2 (Mus musculus), Q8JZN1 (protein) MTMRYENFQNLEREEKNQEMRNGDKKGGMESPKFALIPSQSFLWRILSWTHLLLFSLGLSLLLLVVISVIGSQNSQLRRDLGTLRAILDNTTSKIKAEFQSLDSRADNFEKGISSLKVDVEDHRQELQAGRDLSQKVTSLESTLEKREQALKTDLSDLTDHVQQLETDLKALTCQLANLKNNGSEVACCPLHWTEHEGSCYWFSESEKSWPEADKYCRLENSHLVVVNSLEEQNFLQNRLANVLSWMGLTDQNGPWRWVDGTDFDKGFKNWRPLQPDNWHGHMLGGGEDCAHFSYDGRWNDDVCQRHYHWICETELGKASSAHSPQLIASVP", "reportedValue": 3.46}
{"binder": "Arath Fbox LD (Arabidopsis thaliana) (protein) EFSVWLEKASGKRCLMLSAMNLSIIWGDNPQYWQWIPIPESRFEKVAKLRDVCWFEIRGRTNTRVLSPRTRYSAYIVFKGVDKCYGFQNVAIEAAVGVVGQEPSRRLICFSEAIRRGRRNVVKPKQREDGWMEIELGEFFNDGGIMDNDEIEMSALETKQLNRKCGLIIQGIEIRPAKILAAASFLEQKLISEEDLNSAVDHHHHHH", "reportedValue": -0.574}
{"binder": "LlpA1 (Pseudomonas fluorescens), Q4KHC3 (protein) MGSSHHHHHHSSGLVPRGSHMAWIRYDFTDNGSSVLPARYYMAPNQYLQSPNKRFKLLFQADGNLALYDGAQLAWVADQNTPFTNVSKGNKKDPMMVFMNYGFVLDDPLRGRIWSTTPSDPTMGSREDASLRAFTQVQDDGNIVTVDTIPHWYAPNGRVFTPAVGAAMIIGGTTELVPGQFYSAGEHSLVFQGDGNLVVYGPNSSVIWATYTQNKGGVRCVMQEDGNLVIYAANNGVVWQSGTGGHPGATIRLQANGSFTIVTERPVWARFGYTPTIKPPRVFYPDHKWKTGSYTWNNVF", "reportedValue": 1.64}
{"binder": "rCNL (Clitocybe nebularis), B2ZRS9 (protein) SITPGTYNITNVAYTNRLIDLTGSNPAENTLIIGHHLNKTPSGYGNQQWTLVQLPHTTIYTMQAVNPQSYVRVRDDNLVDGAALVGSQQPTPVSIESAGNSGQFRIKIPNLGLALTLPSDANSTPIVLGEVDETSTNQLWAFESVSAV", "reportedValue": 4.96}
{"binder": "Cohesin-hDCIR (Homo sapiens) (protein) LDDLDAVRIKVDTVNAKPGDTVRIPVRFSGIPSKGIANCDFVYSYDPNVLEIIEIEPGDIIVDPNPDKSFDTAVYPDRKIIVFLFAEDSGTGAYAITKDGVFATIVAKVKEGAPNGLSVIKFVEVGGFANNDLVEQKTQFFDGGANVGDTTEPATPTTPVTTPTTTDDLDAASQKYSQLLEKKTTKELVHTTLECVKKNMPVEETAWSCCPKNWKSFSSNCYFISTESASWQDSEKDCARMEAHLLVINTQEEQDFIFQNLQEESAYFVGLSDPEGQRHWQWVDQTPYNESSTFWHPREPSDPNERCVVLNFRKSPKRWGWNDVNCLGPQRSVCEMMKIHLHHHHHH", "reportedValue": 0.86}
{"binder": "DBA (Dolichos biflorus) (protein) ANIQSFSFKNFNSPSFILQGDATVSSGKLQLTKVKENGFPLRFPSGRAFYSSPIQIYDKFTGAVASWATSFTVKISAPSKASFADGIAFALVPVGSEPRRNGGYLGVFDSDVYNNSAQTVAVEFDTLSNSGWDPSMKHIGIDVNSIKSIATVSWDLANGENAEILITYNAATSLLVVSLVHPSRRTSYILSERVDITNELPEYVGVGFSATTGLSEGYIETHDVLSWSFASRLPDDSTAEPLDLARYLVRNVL", "reportedValue": 1.8}
{"binder": "MUB70 (Lactobacillus reuteri) (protein) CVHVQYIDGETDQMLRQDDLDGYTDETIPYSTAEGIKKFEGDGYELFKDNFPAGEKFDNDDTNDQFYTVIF", "reportedValue": 0.276}
{"binder": "EUL D1A first (Oryza sativa) (protein) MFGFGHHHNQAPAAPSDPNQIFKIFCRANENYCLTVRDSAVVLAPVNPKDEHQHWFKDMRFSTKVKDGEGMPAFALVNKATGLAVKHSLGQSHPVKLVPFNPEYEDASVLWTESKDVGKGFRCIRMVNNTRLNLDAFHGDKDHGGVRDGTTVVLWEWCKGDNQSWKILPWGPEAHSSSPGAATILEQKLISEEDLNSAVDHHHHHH", "reportedValue": -0.411}
{"binder": "LSL-150 (Laetiporus sulphureus), Q7Z8V1 (protein) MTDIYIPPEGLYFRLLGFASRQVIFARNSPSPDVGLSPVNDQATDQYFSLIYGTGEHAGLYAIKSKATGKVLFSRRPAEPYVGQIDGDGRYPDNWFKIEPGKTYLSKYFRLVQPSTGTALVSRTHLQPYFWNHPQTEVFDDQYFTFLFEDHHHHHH", "reportedValue": -0.203}
